- System: Enterococcus sp.
- MEASUREMENT_NOTES: In vitro antibacterial evaluation: minimum inhibitory concentration (MIC), broth dilution method
- Format: cell-based
- CONDITION_LABEL: broth dilution, inoculum 5×10^5 CFU/mL, 18 hours at 35° C.
Give MIC Enterococcus faecalis (GC 4553) for every item shown.
Give bare numbers, in µg/mL.

Below, 2 compounds whose answers are already recorded.
{"COMPOUND": "CC(c1ccccc1)C1NC(=O)CNC(=O)C(CO)NC(=O)C(C(O)C2CNC(=N)N2C2OC(CO)C(O)C(O)C2O)NC(=O)C(C(O)C2CNC(=N)N2)NC(=O)C(Cc2ccc(OC3OC(CO)C(OC4OC5COC(C)(c6ccc(F)cc6)OC5C(O)C4O)C(O)C3O)cc2)NC1=O (stereo not shown)", "MIC Enterococcus faecalis (GC 4553) / µg/mL": 4}
{"COMPOUND": "CC(c1ccccc1)C1NC(=O)CNC(=O)C(CO)NC(=O)C(CC2CNC(=N)N2C2OC(CO)C(O)C(O)C2O)NC(=O)C(CC2CNC(=N)N2)NC(=O)C(Cc2ccc(OC3OC(CO)C(OC4OC5COC(c6ccc(OCc7ccccc7)cc6)OC5C(O)C4O)C(O)C3O)cc2)NC1=O (stereo not shown)", "MIC Enterococcus faecalis (GC 4553) / µg/mL": 8}

Fill in MIC Enterococcus faecalis (GC 4553) for each of the 2 compounds listed.
1. CC(c1ccccc1)C1NC(=O)CNC(=O)C(CO)NC(=O)C(C(O)C2CNC(=N)N2C2OC(CO)C(O)C(O)C2O)NC(=O)C(C(O)C2CNC(=N)N2)NC(=O)C(Cc2ccc(OC3OC(CO)C(OC4OC5COC6(CCC(C(C)(C)C)CC6)OC5C(O)C4O)C(O)C3O)cc2)NC1=O (stereo not shown)
2. CC(c1ccccc1)C1NC(=O)CNC(=O)C(CO)NC(=O)C(C(O)C2CNC(=N)N2C2OC(CO)C(O)C(O)C2O)NC(=O)C(C(O)C2CNC(=N)N2)NC(=O)C(Cc2ccc(OC3OC(CO)C(OC4OC(CO)C(O)C5OC6(CCCCCCCCCCCC6)OC45)C(O)C3O)cc2)NC1=O (stereo not shown) [Example 210a]

1. 8
2. 8

###

Can you tell me MIC Streptococcus pneumoniae (GC 1894) for the items I'm about to list?
- Tested on: Streptococcus sp.
- MEASUREMENT_NOTES: In vitro antibacterial evaluation: minimum inhibitory concentration (MIC), broth dilution method
- Format: cell-based
- CONDITION_LABEL: Streptococcus pneumoniae (GC 1894); 18 hours at 35° C.

{"MOLECULE": "CC(c1ccccc1)C1NC(=O)CNC(=O)C(CO)NC(=O)C(C(O)C2CNC(=N)N2C2OC(CO)C(O)C(O)C2O)NC(=O)C(C(O)C2CNC(=N)N2)NC(=O)C(Cc2ccc(OC3OC(CO)C(OC4OC5COC(c6ccc(C(=O)c7cc(I)c(I)c(I)c7)cc6)OC5C(O)C4O)C(O)C3O)cc2)NC1=O (stereo not shown) [Example 187]", "ENDPOINT_RESULT": "<0.12 µg/mL"}
{"MOLECULE": "CC(c1ccccc1)C1NC(=O)CNC(=O)C(CO)NC(=O)C(C(O)C2CN(c3ncccn3)C(=N)N2C2OC(CO)C(O)C(O)C2O)NC(=O)C(C(O)C2CNC(=Nc3ncccn3)N2)NC(=O)C(Cc2ccc(OC3OC(CO)C(OC4OC5COC6(OC5C(O)C4O)C4CC5CC(C4)CC6C5)C(O)C3O)cc2)NC1=O (stereo not shown) [Example 228]", "ENDPOINT_RESULT": "8 µg/mL"}
{"MOLECULE": "CC(C)=CCN1CC(C(O)C2NC(=O)C(C(O)C3CNC(=N)N3)NC(=O)C(Cc3ccc(OC4OC(CO)C(OC5OC6COC7(OC6C(O)C5O)C5CC6CC(C5)CC7C6)C(O)C4O)cc3)NC(=O)C(C(C)c3ccccc3)NC(=O)CNC(=O)C(CO)NC2=O)N(C2OC(CO)C(O)C(O)C2O)C1=N (stereo not shown) [Example 225]", "ENDPOINT_RESULT": "<0.12 µg/mL"}
{"MOLECULE": "CC(C1CCCCC1)C1NC(=O)CNC(=O)C(CO)NC(=O)C(C(O)C2CNC(=N)N2C2OC(CO)C(O)C(O)C2O)NC(=O)C(C(O)C2CNC(=N)N2)NC(=O)C(Cc2ccc(OC3OC(CO)C(OC4OC5COC(c6ccccc6)OC5C(O)C4O)C(O)C3O)cc2)NC1=O (stereo not shown) [Example 201]", "ENDPOINT_RESULT": "<0.12 µg/mL"}
{"MOLECULE": "CC(c1ccccc1)C1NC(=O)CNC(=O)C(CO)NC(=O)C(C(O)C2CNC(=N)N2C2OC(CO)C(O)C(O)C2O)NC(=O)C(C(O)C2CNC(=N)N2)NC(=O)C(Cc2ccc(OC3OC(CO)C(OC4OC(COC(=O)NCc5ccccc5)C(O)C(O)C4O)C(O)C3O)cc2)NC1=O (stereo not shown) [Example 257b]", "ENDPOINT_RESULT": "0.25 µg/mL"}

Would you mind listing MIC Streptococcus pneumoniae (GC 1894) for each of the following molecules?
1. CC(C)=CCCC(C)=CCCC(C)=CCOc1cccc(C2OCC3OC(OC4C(CO)OC(Oc5ccc(CC6NC(=O)C(C(C)c7ccccc7)NC(=O)CNC(=O)C(CO)NC(=O)C(C(O)C7CNC(=N)N7C7OC(CO)C(O)C(O)C7O)NC(=O)C(C(O)C7CNC(=N)N7)NC6=O)cc5)C(O)C4O)C(O)C(O)C3O2)c1 (stereo not shown) [Example 185]
2. CC(c1ccccc1)C1NC(=O)CNC(=O)C(CO)NC(=O)C(CC2CNC(=N)N2C2OC(CO)C(O)C(O)C2O)NC(=O)C(CC2CNC(=N)N2)NC(=O)C(Cc2ccc(OC3OC(CO)C(OC4OC5COC(c6ccc(OCc7ccccc7)cc6)OC5C(O)C4O)C(O)C3O)cc2)NC1=O (stereo not shown) [Example 191]

["<0.06 µg/mL", "0.25 µg/mL"]
